# Tested target: UniProtKB Q62230
# Sequence (Q62230 20-136 limits assumed): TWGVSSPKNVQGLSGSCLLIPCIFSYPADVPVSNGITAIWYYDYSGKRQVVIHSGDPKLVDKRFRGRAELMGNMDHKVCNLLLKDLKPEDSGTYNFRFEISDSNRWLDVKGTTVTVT
# Experiment: Hapten inhibition assay, Siglec-1 (sialoadhesin)
# Format: binding
# Measurement context: quotient IC50 reference compound / IC50 compound
Measurement name: Siglec-1 (sialoadhesin) rIP

[
  {
    "Compound": "CO[C@]1(C(=O)O)C[C@H](O)[C@@H](NC(C)=O)[C@H]([C@H](O)[C@H](O)CNC(=O)c2ccc([N+](=O)[O-])cc2[N+](=O)[O-])O1",
    "Tested target": "UniProtKB Q62230",
    "Siglec-1 (sialoadhesin) rIP": 0.3
  }
]

A: COC1(C(=O)O)CC(O)C(NC(C)=O)C(C(O)C(O)CNS(=O)(=O)c2cccc3c(N(C)C)cccc23)O1 (stereo not drawn)
B: COC1(C(=O)O)CC(O)C(NC(C)=O)C(C(O)C(O)CNC(=O)C(F)(F)F)O1 (stereo not drawn)
# min-compare on Siglec-1 (sialoadhesin) rIP between A and B Please indicate the selected item by its label.
B
